# Tested on: CU-ACC1
# Experimental Details: AC50 viability; higher = less potent
# Condition Notes: 48 h
The entries below come with measured AC50 viability values attached.
Readout Label: AC50 viability

>>> value_observed("O=C(NC1CCNCC1)c1n[nH]cc1NC(=O)c1c(Cl)cccc1Cl")
"9.34 µM"
>>> value_observed("CCC(=O)O[C@@]1([C@@H](C)C[C@H]2[C@@H]3CCC/4=C/C(=O)/C=C\\[C@]4(C)[C@@]3(F)[C@@H](O)C[C@]12C)C(=O)CCl")
"20.9 µM"
>>> value_observed("C[C@@H](NC(=O)c1ncnc(N)c1Cl)c1ncc(C(=O)Nc2cc(C(F)(F)F)c(Cl)cn2)s1")
"18.6 µM"
>>> value_observed("O=C1NC(=O)[C@@H](c2c[nH]c3ccccc23)[C@H]1c1cn2c3c(cccc13)CCC2")
"20.9 µM"
>>> value_observed("Clc1ccc(C(Cn2ccnc2)OCc2ccsc2Cl)c(Cl)c1 (stereo unspecified)")
"16.6 µM"
>>> value_observed("CCCCCCCCc1ccc(CCC(N)(CO)CO)cc1")
"10.5 µM"

###

# Tested on: CU-ACC1
# Experimental Details: area under concentration-response curve (viability) (AUC (a.u.)); higher = less active
# Condition Notes: 48 h
The entries below come with measured area under concentration-response curve values attached.
Readout Label: area under concentration-response curve

>>> value_observed("CC[S+](=O)([O-])N1CCC([C@@H](C)n2c(C)c(/C(O)=N/Cc3c(OC)cc(C)nc3O)c3ccccc32)CC1")
509
>>> value_observed("CC1(C)CCC(=C(\\C1)C2=CC=C(Cl)C=C2)/CN3CCN(CC3)C4=CC(=C(C=C4)C(=O)N[S+]([O-])(=O)C5=CC=C(NCC6CCOCC6)C(=C5)[N+]([O-])=O)OC7=CN=C8[NH]C=CC8=C7")
511
>>> value_observed("CCCCCCCCCC(=O)N[C@@H](Cc1c[nH]c2ccccc12)C(=O)N[C@H](CC(N)=O)C(=O)N[C@@H](CC(=O)O)C(=O)N[C@@H]1C(=O)NCC(=O)N[C@@H](CCCN)C(=O)N[C@@H](CC(=O)O)C(=O)N[C@H](C)C(=O)N[C@@H](CC(=O)O)C(=O)NCC(=O)N[C@H](CO)C(=O)N[C@@H]([C@@H](C)CC(=O)O)C(=O)N[C@@H](CC(=O)c2ccccc2N)C(=O)O[C@@H]1C")
485
>>> value_observed("CC(C)[C@](O)(c1ccc2cc(OC(F)F)c(OC(F)F)cc2c1)c1c[nH]nn1")
492
>>> value_observed("CO[C@H](C1COC1)C2=C(Cl)C3=C(CCN(C\\C4=C(OC)\\C=C(\\C)NC4=O)C3=O)C(=C2)Cl")
496

###

The entries below come with measured area under concentration-response curve values attached.
# Test system: CU-ACC1
# Experimental Details: area under concentration-response curve (viability) (AUC (a.u.)); higher = less active
# Condition Notes: 48 h
Readout Label: area under concentration-response curve

>>> value_observed("N=C(NCCCCCCNC(=N)NC(=N)Nc1ccc(Cl)cc1)NC(=N)Nc1ccc(Cl)cc1")
511
>>> value_observed("Cc1ccc(NC(=O)c2ccc(CN3CCN(C)CC3)cc2)cc1Nc1nc(-c2cccnc2)cs1")
503
>>> value_observed("O[C@@H]1C\\C(=C/C(O)C1O)C(O)=O (stereo not given in full)")
512
>>> value_observed("CCCC(CCC)C(=O)NC/1=N/C(=O)N(/C=C1)[C@@H]2O[C@H](CO)[C@@H](O)C2(F)F")
496
>>> value_observed("Cc1cc2cc(Oc3ccnc(Nc4cccc(C[S+](=O)([O-])NCCN(C)C)c4)n3)ccc2[nH]1")
493

###

# Test system: CU-ACC1
# Experimental Details: area under concentration-response curve (viability) (AUC (a.u.)); higher = less active
# Condition Notes: 48 h
Quick rule: area under concentration-response curve of at least 500 means 1.0, below that means 0.0.

>>> answer_label("CCCCC(=O)OCC(=O)[C@]1(O)Cc2c(O)c3c(c(O)c2[C@@H](O[C@H]2C[C@H](NC(=O)C(F)(F)F)[C@H](O)[C@H](C)O2)C1)C(=O)c1c(OC)cccc1C3=O")
0.0
>>> answer_label("O=C1NC(=O)/C(=C/c2ccc3nccnc3c2)S1")
0.0
>>> answer_label("COCCOC(=O)N1CCN([S+](=O)([O-])c2cc(F)c(Oc3ccc(Cl)cc3)c(F)c2)C(C(=O)NO)C1 (stereo unspecified)")
0.0
>>> answer_label("CCCC\\1=C(/CNC(=O)C2=CC(=CC3=C2C=N[N]3C(C)C)C4=CC(=NC=C4)N5CCN(C)CC5)C(=O)NC(=C1)\\C")
0.0
>>> answer_label("C[N]1C=C(C2=C1C=CC=C2)\\C3=C(\\C(=O)NC3=O)C4=C5CC(CN)CC[N]5C6=C4C=CC=C6 (stereo unspecified)")
1.0
>>> answer_label("NC\\1=N\\C(=O)N(\\C=C1F)[C@H]2C[C@H](O)[C@@H](CO)O2")
0.0
>>> answer_label("Cc1cc(-c2ccc(CC(=O)Nc3ccc(-c4cccnc4)cc3)cc2)ccn1")
0.0
>>> answer_label("Fc1ccc(Cl)cc1-c1nc(Nc2ccncc2)c2nccnc2n1")
1.0

###

# Tested on: CU-ACC2
# Experimental Details: AC50 viability; higher = less potent
# Condition Notes: 48 h
Mark condition met for AC50 viability under 8 µM, condition not met if at or over.

>>> answer_label("CNC(=O)c1ccccc1Nc1nc(Nc2ccc(N3CCOCC3)cc2OC)ncc1Cl")
"condition met"
>>> answer_label("Cn1ncc(Cl)c1-c1cc(C(=O)NC(CN)Cc2ccc(F)c(F)c2)oc1Cl (configuration not stated)")
"condition not met"
>>> answer_label("O=C(CCCCCCNC(=O)c1cnc(N(c2ccccc2)c2ccccc2Cl)nc1)NO")
"condition not met"
>>> answer_label("CN(C)Cc1ccc([S+](=O)([O-])n2ccc(/C=C/C(=O)NO)c2)cc1")
"condition not met"
>>> answer_label("CN(C)C[C@@H]1CC[N]2C=C(C3=C2C=CC=C3)C/4=C(/C(=O)NC4=O)C5=C[N](CCO1)C6=C5C=CC=C6")
"condition not met"
>>> answer_label("CN(C)c1ccc2cc(C(=O)N[C@@H](CCCNC(=N)CCl)C(=O)NCc3ccccc3)ccc2c1")
"condition met"
>>> answer_label("O=C(Nc1ccccc1-c1cn2c(CN3CCNCC3)csc2n1)c1cnc2ccccc2n1")
"condition met"
>>> answer_label("CO[C@@H]1[C@@H](O)[C@H](O)[C@@H](n2c3c(Cl)cccc3c3c4c(c5c6cccc(Cl)c6[nH]c5c32)C(=O)NC4=O)O[C@H]1CO")
"condition not met"
>>> answer_label("COc1cc(N2CCC(N3CCN(C)CC3)CC2)ccc1Nc1ncc(Cl)c(Nc2ccccc2[S+](=O)([O-])C(C)C)n1")
"condition met"
>>> answer_label("CN1CCCN(C(=O)c2cccc(-c3ccc(/C=C4/C(=O)Nc5ccc(Cl)cc54)o3)c2)CC1")
"condition not met"
>>> answer_label("CC1(COc2ccc3c(c2)ncn3-c2ccc3cccc(N4CCC(N)CC4)c3n2)COC1")
"condition not met"
>>> answer_label("CC(C)N(CCC(=O)c1ccc2ccccc2c1)Cc1ccccc1")
"condition not met"
>>> answer_label("O=C(c1ccc(/C=C/c2n[nH]c3ccccc23)cc1)N1CCNCC1")
"condition not met"
>>> answer_label("COc1cc(F)c(F)c(Nc2ccc(I)cc2F)c1N[S+](=O)([O-])C1(C[C@H](O)CO)CC1")
"condition met"
>>> answer_label("CCOc1cc(N2CCC(O)CC2)ccc1Nc1ncc2c(n1)N(C)c1ccccc1C(=O)N2C")
"condition not met"
>>> answer_label("Oc1cc(-c2nc(-c3ccccc3)[nH]c2-c2ccncc2)ccc1Cl")
"condition not met"
>>> answer_label("Nc1ccc(C(=O)Nc2cccc(-c3nc(N4CCOCC4)c4oc5ncccc5c4n3)c2)cn1")
"condition met"
>>> answer_label("NC(CO)(CO)CCc1ccc(Sc2cccc(OCc3ccccc3)c2)cc1Cl")
"condition not met"
>>> answer_label("C[C@@H](OC[C@@]1(c2ccccc2)CC[C@]2(CCC(=O)N2)CN1)c1cc(C(F)(F)F)cc(C(F)(F)F)c1")
"condition not met"
>>> answer_label("CC[C@H]1CN2CCc3cc(OC)c(OC)cc3[C@@H]2C[C@@H]1C[C@H]1NCCc2cc(OC)c(OC)cc21")
"condition met"
>>> answer_label("CN1\\N=C(N)/C2=C[N]([C@@H]3O[C@H](CO[P](O)(O)=O)[C@@H](O)[C@H]3O)C4=C2C1=NC=N4")
"condition met"
>>> answer_label("CC(O)(C#Cc1ccc2c(c1)N(c1nc(N)ncc1Cl)CC2)c1nccs1 (configuration not stated)")
"condition not met"

###

# System: CU-ACC2
# Experimental Details: AC50 viability; higher = less potent
# Condition Notes: 48 h
The entries below come with measured AC50 viability values attached.
Readout Label: AC50 viability (µM)

>>> value_observed("CCc1nc(C(N)=O)c(Nc2ccc(N3CCC(N4CCN(C)CC4)CC3)c(OC)c2)nc1NC1CCOCC1")
13.2
>>> value_observed("COc1ccc(F)c(F)c1C(=O)c1cnc(NC2CCN([S+](C)(=O)[O-])CC2)nc1N")
1.48
>>> value_observed("COc1cc(C(=O)N2CCC(N3CCN(C)CC3)CC2)ccc1Nc1ncc2c(n1)N(C)c1ccccc1C(=O)N2C")
20.9

These measurements were taken from the supplement of paper PMC10949913.
